Recorded Ki for molecules tested on Prothrombin (Homo sapiens), drawn from a number of studies.

// known answers, use as guide
substance-smiles	Ki
O=C(Nc1ccc(Cl)cc1)c1cc(Cl)ccc1NC(=O)c1scc(Cn2ncnn2)c1Cl	> 5 µM
N=C(N)c1ccc(O)c(CCCNC(=O)c2ccc(-c3ccccc3)cc2)c1	> 4 µM

Entry "CNC(=O)[C@]1(C)C[C@@H](C(=O)NCc2ccc(C(=N)N)cc2)n2c1c(Cl)nc(NC1CCC1)c2=O" has what Ki?
> 15 µM

====

pKi: −log10 of the molar value.
Recorded pKi for compounds tested on Prothrombin (Homo sapiens, UniProt P00734), drawn from a number of studies.

// known answers, use as guide
compound	assayed-target	pKi
COc1ccc2ccc(S(=O)(=O)N[C@@H](CCCCN)C(=O)c3nccs3)cc2c1	Prothrombin (Homo sapiens, UniProt P00734)	< 6.00
CS(=O)(=O)c1ccccc1-c1ccc2c(c1)C(O)CCN2C(=O)c1cc(C(F)(F)F)nn1-c1ccc2onc(N)c2c1 (racemic)	Prothrombin (Homo sapiens, UniProt P00734)	< 5.20
CCOc1cc(C(Nc2ccc3cnccc3c2)C(=O)NS(=O)(=O)c2ccccc2S(N)(=O)=O)ccc1OC(C)C (centres undefined)	Prothrombin (Homo sapiens, UniProt P00734)	< 4.89
Cc1cc(C(=O)Nc2ccc(-c3ccccc3S(N)(=O)=O)cc2)n(-c2ccccc2)n1	Prothrombin (Homo sapiens, UniProt P00734)	< 4.68
COC(=O)Nc1ccc2c(c1)NC(=O)CCCC[C@H](NC(=O)/C=C/c1cc(Cl)ccc1-n1cnnn1)c1nc-2c[nH]1	Prothrombin (Homo sapiens, UniProt P00734)	< 4.94

I'm curious: which pKi was measured for CCNC(=O)NCC1(C(=O)Nc2ccc(-c3ccccc3S(N)(=O)=O)cn2)CC(c2ccc(Cl)c(N)c2)=NO1 (racemic) tested on Prothrombin (Homo sapiens, UniProt P00734)?
< 5.20

I'm curious: which pKi was measured for "CC1(C)CNC(c2cccc(Oc3cc(C(=O)O)cc(Oc4cc(C(=N)N)ccc4O)n3)c2)=N1" tested on Prothrombin (Homo sapiens, UniProt P00734)?
< 5.30

I'm curious: which pKi was measured for CC(=N)N1CC[C@H](Oc2ccc(C(Oc3ccc4c(c3)CN(C(=N)N)CC4)C(=O)O)cc2)C1 (some centres undefined) tested on Prothrombin (Homo sapiens, UniProt P00734)?
< 4.00

I'm curious: which pKi was measured for "CCOC(=O)C1CCN(c2ccc(N3C[C@@H](CNC(=O)c4cnc(N)s4)OC3=O)cc2)CC1.O=C(O)C(F)(F)F" tested on Prothrombin (Homo sapiens, UniProt P00734)?
< 4.00

====

Recorded pKi for compounds tested on Prothrombin (Homo sapiens, UniProt P00734), drawn from a number of studies.
Remember the convention: pKi equals -log10 of concentration in molar.

// known answers, use as guide
compound	assayed-target	reported
NCCCC[C@H](NC(=O)[C@@H]1CCCN1C(=O)[C@H](CC(=O)O)NS(=O)(=O)Cc1ccccc1)C(=O)C(=O)O	Prothrombin (Homo sapiens, UniProt P00734)	7.82
COC(=N)NS(=O)(=O)c1c(C)cc(C)cc1C	Prothrombin (Homo sapiens, UniProt P00734)	6.46
Cc1cc(OCCCONC(=N)N)cc(OS(=O)(=O)c2ccccc2S(=O)(=O)c2ccccc2)c1	Prothrombin (Homo sapiens, UniProt P00734)	8.32
Cc1cc(C)cc(C(C)(C)CN(CC(=O)NC(CCCCN)B(O)O)C(=O)CCc2ccccc2)c1 (stereo not given)	Prothrombin (Homo sapiens, UniProt P00734)	9.39
CS(=O)(=O)c1ccccc1-c1ccc(NC(=O)c2nnnn2-c2ccc3onc(N)c3c2)c(F)c1	Prothrombin (Homo sapiens, UniProt P00734)	6.40
N=C(N)N1CCC(COc2cc(Cl)cc(OS(=O)(=O)c3ccccc3Cl)c2)CC1	Prothrombin (Homo sapiens, UniProt P00734)	7.52
CC(=O)N1CCN(C(=O)[C@H](CCCN=C(N)N)NS(=O)(=O)c2cccc(C(F)(F)F)c2)CC1	Prothrombin (Homo sapiens, UniProt P00734)	5.60
N=C(N)c1ccc(-n2ccc3ccc(NCc4cccc(C(=N)N)c4)cc32)cc1	Prothrombin (Homo sapiens, UniProt P00734)	5.42

I'm curious: which pKi was measured for "Cc1ccc(NS(=O)(=O)Cc2ccccc2)c(=O)n1CC(=O)NC/C=C/c1cnc(N)s1" tested on Prothrombin (Homo sapiens, UniProt P00734)?
5.74

====

Recorded Ki for compounds tested on Prothrombin (Homo sapiens, UniProt P00734), drawn from a number of studies.

compound	quantity-kind	reported
Cc1cc(C(=O)Nc2ccc(-c3ccccc3S(N)(=O)=O)cc2)n(-c2cccc(S(N)(=O)=O)c2)n1	Ki	> 21 µM
N=C(N)c1ccc(O)c(/C=C/CNC(=O)c2ccc(-c3ccccc3)cc2)c1	Ki	> 4 µM
N=C(N)c1cccc(CN2CC[C@H](NS(=O)(=O)c3ccc4ncccc4c3)C2=O)c1	Ki	> 4 µM

I'm curious: which Ki was measured for "Cc1c(F)c(Oc2cccc(C(=N)N)c2)nc(Oc2cccc(C(=O)N3CCOCC3)c2)c1F" tested on Prothrombin (Homo sapiens, UniProt P00734)?
> 5 µM

I'm curious: which Ki was measured for CCOc1cc(C(Nc2ccc3c(N)nccc3c2)C(=O)NS(=O)(=O)c2cccc(N)c2)ccc1OC(C)C (stereo not given) tested on Prothrombin (Homo sapiens, UniProt P00734)?
> 13 µM

====

Recorded Ki for molecules tested on Prothrombin (Homo sapiens), drawn from a number of studies.
Response field label takes fulfilled when Ki is strictly below 7000 nM and not fulfilled in all other cases.

Is Ki strictly under 7000 nM for the entry CCOc1cc(OC2CCN(C)CC2)cc(C(Nc2ccc(C(=N)N)cc2)C(=O)O)c1 (configuration not stated) ?
not fulfilled

Is Ki strictly under 7000 nM for the entry N=C(N)N1CCCC(C[C@H](NC(=O)CN2C(=O)CN(CCCc3ccccc3)C(=O)[C@H]2Cc2ccc(Cl)c(Cl)c2)C(=O)c2nccs2)C1 (some centres not stated) ?
fulfilled

Is Ki strictly under 7000 nM for the entry "O=C([C@@H](NS(=O)(=O)c1cnccc1N[C@H](CO)Cc1ccccc1)c1ccncc1)N1CCC(CCF)CC1" ?
fulfilled

Is Ki strictly under 7000 nM for the entry "Cc1cc(C(=O)Nc2ncc(-c3ccccc3S(N)(=O)=O)cn2)n(-c2cccc(C(=N)N)c2)n1" ?
not fulfilled

Is Ki strictly under 7000 nM for the entry CCCCS(=O)(=O)N[C@H](Cc1ccccc1)C(=O)N1CCC[C@H]1C(=O)N[C@@H](CCCn1ccnc1[N+](=O)[O-])B1O[C@@H]2CC3CC(C3(C)C)[C@]2(C)O1 (some centres not stated) ?
fulfilled

====

Recorded Ki for molecules tested on Prothrombin (Homo sapiens), drawn from a number of studies.

// known answers, use as guide
molecule	assayed-target	Ki
N=C(N)N1CCC(Oc2ccc(C(Oc3ccc4c(c3)CN(C(=N)N)CC4)C(=O)O)cc2)CC1 (stereo not given)	Prothrombin (Homo sapiens)	> 100 µM
N/C(=N\O)c1ccc(CNC(=O)CNC(=O)[C@@H](CO)NS(=O)(=O)Cc2ccccc2)cc1	Prothrombin (Homo sapiens)	> 1000 µM
Cc1cc(C(=O)Nc2ccc(-c3ccccc3S(N)(=O)=O)cc2)n(-c2ccc3[nH]nc(N)c3c2)n1	Prothrombin (Homo sapiens)	> 21 µM

Entry "CS(=O)(=O)Cc1csc(C(=O)Nc2ccc(Cl)cc2C(=O)Nc2ccc(Cl)cc2)c1Cl" has what Ki?
> 5 µM
